tested on: Crude diglycosidase; experiment: Examination of substrate concentration in the conversion into isoflavone aglycons by diglycosidase using soybean materials; format: biochemical, Penicillium multicolor IAM7153; details: concentrated soybean protein, substrate concentration 30%, heat treatment of enzyme no, reaction time 6 h;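 further: percent of the isoflavone family total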
MEASURE: Decomposition efficiency: ratio of each glycoside/aglycon within its isoflavone family

O=C(O)CC(=O)OC[C@H]1O[C@@H](Oc2cc(O)c3c(=O)c(-c4ccc(O)cc4)coc3c2)[C@H](O)[C@@H](O)[C@@H]1O [malonylgenistin, 6″-O-malonylgenistin] | not detected
O=c1c(-c2ccc(O)cc2)coc2cc(O[C@@H]3O[C@H](CO)[C@@H](O)[C@H](O)[C@H]3O)ccc12 [diadzin] | not detected
O=C(O)CC(=O)OC[C@H]1O[C@@H](Oc2ccc3c(=O)c(-c4ccc(O)cc4)coc3c2)[C@H](O)[C@@H](O)[C@@H]1O [malonydaidzin] | not detected

---

system: Crude diglycosidase; test: Examination of substrate concentration in the conversion into isoflavone aglycons by diglycosidase using soybean materials; type: biochemical, Penicillium multicolor IAM7153; settings: roasted soy flour, substrate concentration 5%, heat treatment of enzyme no, reaction time 1 h;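 further: percent of the isoflavone family total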
MEASURE: Decomposition efficiency: ratio of each glycoside/aglycon within its isoflavone family

O=C(O)CC(=O)OC[C@H]1O[C@@H](Oc2cc(O)c3c(=O)c(-c4ccc(O)cc4)coc3c2)[C@H](O)[C@@H](O)[C@@H]1O | not detected
COc1cc2c(=O)c(-c3ccc(O)cc3)coc2cc1O[C@@H]1O[C@H](CO)[C@@H](O)[C@H](O)[C@H]1O | not detected
COc1cc2c(=O)c(-c3ccc(O)cc3)coc2cc1O[C@@H]1O[C@H](COC(=O)CC(=O)O)[C@@H](O)[C@H](O)[C@H]1O | not detected

---

system: Crude diglycosidase; assay: Examination of substrate concentration in the conversion into isoflavone aglycons by diglycosidase using soybean materials; assay type: biochemical, Penicillium multicolor IAM7153; settings: roasted soy flour, substrate concentration 20%, heat treatment of enzyme no, reaction time 3 h;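 further: percent of the isoflavone family total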
MEASURE: Decomposition efficiency: ratio of each glycoside/aglycon within its isoflavone family

O=C(O)CC(=O)OC[C@H]1O[C@@H](Oc2ccc3c(=O)c(-c4ccc(O)cc4)coc3c2)[C@H](O)[C@@H](O)[C@@H]1O | not detected
O=C(O)CC(=O)OC[C@H]1O[C@@H](Oc2cc(O)c3c(=O)c(-c4ccc(O)cc4)coc3c2)[C@H](O)[C@@H](O)[C@@H]1O | not detected
COc1cc2c(=O)c(-c3ccc(O)cc3)coc2cc1O[C@@H]1O[C@H](CO)[C@@H](O)[C@H](O)[C@H]1O | not detected

---

Test system: Crude diglycosidase
Test: Examination of substrate concentration in the conversion into isoflavone aglycons by diglycosidase using soybean materials;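 further: percent of the isoflavone family total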
Type: biochemical, Penicillium multicolor IAM7153
Conditions: concentrated soybean protein, substrate concentration 5%, heat treatment of enzyme no, reaction time 1 h
Method: Into 20 mM acetate buffer of pH 4.0 was suspended 0.1 g, 0.25 g, 0.5 g, 1.0 g, or 1.5 g of each of various soybean materials (roasted soy flour (manufactured by Fuji Shokuryo K.K.), soymilk (manufactured by Gitoh Shokuhin K.K.), defatted soybean (manufactured by Fuji Seiyu K.K.), concentrated soybean protein (manufactured by Fuji Seiyu K.K.)). The pH of the suspension was measured and the liquid volume was adjusted to 4.5 mL while the pH was adjusted to 4.0 with 1N hydrochloric acid. […]
MEASURE: Decomposition efficiency: ratio of each glycoside/aglycon within its isoflavone family

Recorded Decomposition efficiency: ratio of each glycoside/aglycon within its isoflavone family, per entry:
O=C(O)CC(=O)OC[C@H]1O[C@@H](Oc2ccc3c(=O)c(-c4ccc(O)cc4)coc3c2)[C@H](O)[C@@H](O)[C@@H]1O | not detected
O=C(O)CC(=O)OC[C@H]1O[C@@H](Oc2cc(O)c3c(=O)c(-c4ccc(O)cc4)coc3c2)[C@H](O)[C@@H](O)[C@@H]1O | not detected
COc1cc2c(=O)c(-c3ccc(O)cc3)coc2cc1O[C@@H]1O[C@H](CO)[C@@H](O)[C@H](O)[C@H]1O | not detected
O=c1c(-c2ccc(O)cc2)coc2cc(O[C@@H]3O[C@H](CO)[C@@H](O)[C@H](O)[C@H]3O)ccc12 | not detected

Now, please, on to the next molecule.
[in] Provide the documented Decomposition efficiency: ratio of each glycoside/aglycon within its isoflavone family with Crude diglycosidase as the system for O=c1c(-c2ccc(O)cc2)coc2cc(O[C@@H]3O[C@H](CO)[C@@H](O)[C@H](O)[C@H]3O)cc(O)c12
[out] not detected
